- tgt: KRas WT (Homo sapiens, UniProt P01116)
- Construct: Biotinylated KRas (corresponding to amino acids 1-169, produced at Accelegan Inc.); biotin (biotinylated); purchased Accelegan Inc
- Sequence (P01116 1-169 isoform P01116-2): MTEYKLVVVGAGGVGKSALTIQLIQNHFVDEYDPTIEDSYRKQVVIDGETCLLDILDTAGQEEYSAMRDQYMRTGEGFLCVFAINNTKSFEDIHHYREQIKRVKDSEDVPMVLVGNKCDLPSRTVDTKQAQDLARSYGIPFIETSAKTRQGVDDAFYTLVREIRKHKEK
- method: KRas binding assay, TR-FRET displacement of Cy5 labelled tracer
- test.conditions: 60-minute incubation at room temperature, 1% DMSO, pH 7.5
experimental.endpoint: IC50 (nM)
Kindly provide the numeric value in nM only, without the unit symbol.

Request: Please list IC50 recorded for the molecule N#Cc1c(N)sc2c(F)ccc(-c3c(C(F)(F)F)cc4c(N5CCC(C(=O)Oc6ccccc6)CC5)nc(OC[C@@]56CCCN5C[C@H](F)C6)nc4c3F)c12 [Example 295]
Result: 44

Request: Return IC50 (reported value) for this molecule: CCc1c(F)ccc2cc(O)cc(-c3ncc4c(N5CCC(C(=O)n6ccc(C)n6)C6CC65)nc(OC[C@@]56CCCN5C[C@H](F)C6)nc4c3F)c12 (stereo partly shown) [Example 97]
Result: 125

Request: Specify measured IC50 for CCc1c(F)ccc2cc(O)cc(-c3ncc4c(N5CCC(C(=O)n6ccc(C)n6)C5)nc(OC[C@@]56CCCN5C[C@H](F)C6)nc4c3F)c12 (stereo partly shown) [Example 56] .
Result: 69

Request: State its IC50: CCc1c(F)ccc2cc(O)cc(-c3ncc4c(N5C[C@H]6C[C@@H](C(=O)n7ccc(C)n7)C[C@H]6C5)nc(OC[C@@]56CCCN5C[C@H](F)C6)nc4c3F)c12 [Example 128]
Result: 1190

Request: Give a short answer stating reported IC50 for CCc1c(F)ccc2cc(O)cc(-c3ncc4c(N5CC(CC(=O)n6ccc(C)n6)C5)nc(OC[C@@]56CCCN5C[C@H](F)C6)nc4c3F)c12 [Example 84] .
Result: 154

Request: Determine its reported IC50: Cc1ccn(C(=O)C2CCCN(c3nc(OC[C@@]45CCCN4C[C@H](F)C5)nc4c(F)c(-c5c(I)ccc(N)c5C#N)c(Cl)cc34)CC2)n1 (stereo partly shown) [Example 263]
Result: 2130

Request: Give IC50 for the following molecule: CCc1c(F)ccc2cc(O)cc(-c3ncc4c(NCCC(=O)n5ccc(C)n5)nc(OC[C@@]56CCCN5C[C@H](F)C6)nc4c3F)c12 [Example 122]
Result: 19

Request: Please report IC50 for the following molecule: O=C(Oc1ccccc1)[C@@H]1[C@@H]2CC[C@H]1CN(c1nc(OCC34CCCN3CCC4)nc3c(F)c(-c4cccc5cccc(F)c45)ncc13)C2 [Example 26]
Result: 10600

Request: Note IC50 for the molecule shown: CCc1c(F)ccc2cc(O)cc(-c3ncc4c(N5CCC(C(=O)n6cc(C)cn6)CC5)nc(OC[C@@]56CCCN5C[C@H](F)C6)nc4c3F)c12 [Example 57]
Result: 107
